System: Setaria faberi (SETFA)
Assay: Post-emergence herbicidal glasshouse test
Assay type: in vivo
Conditions: 250 g/Ha, evaluated after 13 days
# key: entry, value: percentage damage caused to the plant, five point scale, SETFA

>  <CPD SMILES>
CC#Cc1cc(C)c(C2C(=O)CC3(CCN(C(=O)/C(C)=N\O)CC3)CC2=O)c(C)c1

>  <RESULT VALUE>
5 (5=80-100%)

$$$$
>  <CPD SMILES>
CC#Cc1cc(C)c(C2C(=O)CC3(CCN(C(=O)C(C)=NOCC#N)CC3)CC2=O)c(C)c1

>  <RESULT VALUE>
5 (5=80-100%)

$$$$

Shift focus to the following entry.
I would be grateful if you could share the reported percentage damage caused to the plant, five point scale, SETFA for `CC#Cc1cc(C)c(C2C(=O)CC3(CCN(C(=O)/C(=N\OC)C(C)(C)C)CC3)CC2=O)c(C)c1` .
5 (5=80-100%)

###

System: Lolium perenne (LOLPE)
Experiment: Pre-emergence herbicidal glasshouse test
Format: in vivo
Conditions: 250 g/Ha, evaluated after 13 days
PROPERTY MEASURED: percentage damage caused to the plant, five point scale, LOLPE

>  <COMPOUND>
CC#Cc1cc(C)c(C2C(=O)CC3(CCN(C(=O)C(C)=NN(C)C)CC3)CC2=O)c(C)c1 [Compound A8]

>  <RESULT VALUE>
5 (5=80-100%)

$$$$
>  <COMPOUND>
CC#Cc1cc(C)c(C2C(=O)CC3(CCN(C(=O)C(C)=NOC)CC3)CC2=O)c(C)c1 [Compound A1]

>  <RESULT VALUE>
5 (5=80-100%)

$$$$
>  <COMPOUND>
CC#Cc1cc(C)c(C2C(=O)CC3(CCN(C(=O)/C(C)=N/OC4CCOCC4)CC3)CC2=O)c(C)c1 [Compound A9]

>  <RESULT VALUE>
3 (3=40-59%)

$$$$

Okay, next one:
Can you look up percentage damage caused to the plant, five point scale, LOLPE on Lolium perenne (LOLPE) for CC#Cc1cc(C)c(C2C(=O)CC3(CCN(C(=O)/C=N/OC)CC3)CC2=O)c(C)c1 [Compound A3] ?
5 (5=80-100%)

###

System: Avena fatua (AVEFA)
Assay: Pre-emergence herbicidal glasshouse test
Format: in vivo
Conditions: 250 g/Ha, evaluated after 13 days
Procedure: Seeds of a variety of test species are sown in standard soil in pots (Lolium perenne (LOLPE), Setaria faberi (SETFA), Alopecurus myosuroides (ALOMY), Echinochloa crus-galli (ECHCG), Avena fatua (AVEFA)). […] After 13 days for pre and post-emergence, the test is evaluated for the percentage damage caused to the plant. […]
// reported percentage damage caused to the plant, five point scale, AVEFA for each item listed

Would you please look over these solved cases?
>  <CPD SMILES>
CC#Cc1cc(C)c(C2C(=O)CC3(CCN(C(=O)C(C)=NOCCOC)CC3)CC2=O)c(C)c1

>  <RESULT VALUE>
3 (3=40-59%)

$$$$
>  <CPD SMILES>
CC#Cc1cc(C)c(C2C(=O)CC3(CCN(C(=O)/C(C)=N/Oc4ccccn4)CC3)CC2=O)c(C)c1

>  <RESULT VALUE>
5 (5=80-100%)

$$$$

Hello, I am looking for reported percentage damage caused to the plant, five point scale, AVEFA with Avena fatua (AVEFA) for `CC#Cc1cc(C)c(C2C(=O)CC3(CCN(C(=O)/C(=N\OC)C(C)(C)C)CC3)CC2=O)c(C)c1` . Could you help?
2 (2=20-39%)
